measured-on: alkaline phosphatase (Bos taurus)
Type: biochemical
Design: purchased Sigma Aldrich, St. Louis, MO P0114 (original source); P7640 (second source, 'new AP' condition only)
So I've got a bunch of compounds here, and I need their A1-Results AVG values.
# answer = number (no unit)

Challenge: I have this compound here, CCCCCCCCCCCCCC(=O)OC(C)C [Isopropyl Myristate] , and I need its recorded A1-Results AVG.
Response given: 3.451

Challenge: How about this compound: CC/C=C\CC1=C(C)CCC1=O
Response given: 3.502

Challenge: How about this compound: OCCc1ccccc1 [Phenylethyl alcohol]
Response given: 3.469

Challenge: How about this compound: CN(C)Cc1ccccc1 [N,N-Dimethylbenzylamine]
Response given: 3.240

Challenge: How about this compound: CCCCCCC=O [Heptanal]
Response given: 3.196

Challenge: How about this compound: CC(C)O [Isopropanol]
Response given: 3.423

Challenge: How about this compound: CC(=O)O [Acetic acid]
Response given: 0.096

Challenge: How about this compound: CCCCCCCCCCO [1-Decanol]
Response given: 3.449

Challenge: How about this compound: CC(CC=O)CCCC(C)(C)O (stereo not shown) [Hydroxycitronellal]
Response given: 3.356

Challenge: How about this compound: CCCCCCCN [n-Heptylamine]
Response given: 2.557

* * *

So I've got a bunch of compounds here, and I need their percent of phosphatase measured, average values.
Test system: endogenous skin phosphatase
Format: biochemical, porcine
stated-conditions: optical density compared to the naïve condition
Supply the numeric figure in %, leaving out any unit text.

Challenge: I have this compound here, CC(=O)O , and I need its recorded percent of phosphatase measured, average.
Response given: 18.9

Challenge: How about this compound: CCCCCCC=O
Response given: 97.2

Challenge: How about this compound: CCCSSCCC [di-n-Propyl disulfide]
Response given: 69.9

Challenge: How about this compound: CN(C)CCCNCCCN
Response given: 20.6

Challenge: How about this compound: NCCO
Response given: 19.9

Challenge: How about this compound: OCCOCCOCCO
Response given: 28.9

Challenge: How about this compound: CC(C=O)Cc1ccc(C(C)C)cc1 (stereo not drawn)
Response given: 100.0

Challenge: How about this compound: CC(C)(O)CCc1ccccc1
Response given: 99.3

Challenge: How about this compound: BrCCc1ccccc1
Response given: 100.0

* * *

measured-on: alkaline phosphatase (Bos taurus, UniProt P19111)
Sequence (P19111 20-506): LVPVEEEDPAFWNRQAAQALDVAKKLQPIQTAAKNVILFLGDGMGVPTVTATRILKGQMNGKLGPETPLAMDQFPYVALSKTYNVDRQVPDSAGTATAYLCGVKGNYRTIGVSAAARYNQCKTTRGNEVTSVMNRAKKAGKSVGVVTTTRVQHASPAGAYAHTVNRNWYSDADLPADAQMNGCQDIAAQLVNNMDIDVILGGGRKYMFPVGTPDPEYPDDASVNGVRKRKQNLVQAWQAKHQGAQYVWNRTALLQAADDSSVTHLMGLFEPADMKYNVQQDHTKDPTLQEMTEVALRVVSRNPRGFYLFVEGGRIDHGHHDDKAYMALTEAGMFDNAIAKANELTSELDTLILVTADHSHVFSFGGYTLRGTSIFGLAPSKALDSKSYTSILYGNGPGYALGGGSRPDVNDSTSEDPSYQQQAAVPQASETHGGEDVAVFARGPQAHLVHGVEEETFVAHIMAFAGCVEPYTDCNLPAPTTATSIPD
Format: biochemical
Set-up: purchased Sigma Aldrich, St. Louis, MO P0114 (original source); P7640 (second source, 'new AP' condition only)
So I've got a bunch of molecules here, and I need their A1-Results R1 values.
# answer = number (no unit)

Challenge: I have this molecule here, OCCc1ccccc1 [Phenylethyl alcohol] , and I need its recorded A1-Results R1.
Response given: 3.502

Challenge: How about this molecule: CCCCCCCCCCCCCC(=O)OC(C)C [Isopropyl Myristate]
Response given: 3.373

Challenge: How about this molecule: CCCCCCC=O [Heptanal]
Response given: 3.409

* * *

measured-on: alkaline phosphatase (Bos taurus, UniProt P19111)
Type: biochemical
Set-up: purchased Sigma Aldrich, St. Louis, MO P0114 (original source); P7640 (second source, 'new AP' condition only)
stated-conditions: 1:100; 20 μL into 180 μL; 0.5 mL microcentrifuge tubes; 4 hours RT; PNPP 60 min; 405 nm
measured-metric: A1-Results R1

Challenge: Observed A1-Results R1 on alkaline phosphatase (Bos taurus, UniProt P19111) for CC(C)(C)c1ccccc1O , please.
Response given: 0.437

Challenge: How about this compound: CC1=CCC(C(C)(C)O)CC1 (stereo not shown)
Response given: 3.502

Challenge: How about this compound: Cc1ccc(C(C)C)cc1O
Response given: 0.211

Challenge: How about this compound: ClCCCCBr
Response given: 3.387

Challenge: How about this compound: [K+].[OH-] [Potassium hydroxide (10%)]
Response given: 0.118

Challenge: How about this compound: CCCCCCCC(=O)O
Response given: 0.741

Challenge: How about this compound: O=C(OCc1ccccc1)c1ccccc1O [Benzyl Salicylate]
Response given: 3.502

Challenge: How about this compound: CCCCCCCCC=O
Response given: 3.393

Challenge: How about this compound: CC(C)=CCC/C(C)=C/CO
Response given: 3.406

Challenge: How about this compound: CN(C)CCCNCCCN
Response given: 0.118
